Reference source: patent US20230272099A1

Target desc: T1, hCD137 (FXa digested) (human, UniProt Q07011 24-186)
T1 construct: Factor Xa digestion and Protein A removed the Fc; also called human CD137 extracellular domain
T1 sequence (Q07011 other isoform, or with tags, fused parts or gaps limits assumed): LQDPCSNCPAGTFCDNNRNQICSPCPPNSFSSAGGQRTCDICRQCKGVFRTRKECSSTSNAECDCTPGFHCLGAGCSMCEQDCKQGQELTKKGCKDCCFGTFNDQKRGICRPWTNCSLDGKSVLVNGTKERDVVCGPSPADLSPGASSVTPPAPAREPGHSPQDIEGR
Run description: SPR, 10 uM ADP
binding amount for assorted binders
Please give a number only; it is taken to be in RU.

- Binder: "dBBAT112-P253 (antibody, human IgG1, lambda, V domains shown) VH: EVQLVESGGDLVKPGGGLRLSCAASGFTFSTYTMNWVRQAPGKGLEWVSSISSRSNYKFYADSVKGRFTISRDNAKNSLYLQMNSLRAEDTAVYYCARFGVKNNMNWVFDYWGQGTLVTVSS VL: QSALTQPPSASGSPGQTVTISCTGTSSDVGFYNYVSWYQQHPGKAPKLMIYEVSKRPSGVPDRFSGSKSGNTASLTVSGLQAEDEADYFCSSYEYIESVLFGGGTKLTVLG"
  binding amount (RU): 27.4

Turning to the following binder.
Query: Input dBBAT091-P253 (antibody, human IgG1, lambda, V domains shown) VH: EVQLVESGGDLVKPGGGLRLSCAASGFTFSSYTMNWVRQAPGKGLEWVSSISSRSNYIDYADSVKGRFTISRDNAKNSLYLQMNSLRAEDTAVYYCARFGKKNDMNWVFDYWGQGTLVTVSS VL: QSALTQPPSASGSPGQTVTISCTGTSTDVGFYNYVSWYQQHPGKAPKLMIYEGSKRPSGVPDRFSGSKSGNTASLTVSGLQAEDEADYFCSSYEYTESVLFGGGTKLTVLG , output reported binding amount.
Response: 20
